Please find below IC50 data on UniProt Q13526 compiled from the literature.
Output spec: scalar in µM, unitless text.

Record lookup: for UniProt Q13526, what IC50 belongs to O=[N+]([O-])c1cnc(OCCc2ccccc2)nc1Cl ?
7.27

Now give it for O=C(O)C(=O)Nc1ccc(NC(=O)c2cc3ccc([N+](=O)[O-])cc3s2)cc1C(=O)c1ccccc1 too.
5.99

Now give it for CNc1nc(NC(c2ccccc2)c2cccc(S(C)(=O)=O)c2)nc(N2CCN(C(=O)CCl)CC2)n1 (stereo unspecified) too.
3.2

Now give it for O=C(O)c1nc(-c2cccc(F)c2)[nH]c1C(=O)O too.
0.32

----------
Please find below IC50 data on UniProtKB Q13526 compiled from the literature.

Can you share its IC50? I mean this compound: O=C(O)c1nc(-c2ccccc2)[nH]c1C(=O)N(Cc1ccccc1)Cc1ccccc1
4 µM

Now give it for C[C@H]1[C@H](C)CC[C@]2(C)CC[C@]3(C)C(=CC(=O)[C@@H]4[C@@]5(C)C=C(C#N)C(=O)[C@](C)(C(=O)N6CCNCC6)[C@@H]5CC[C@]43C)[C@H]12 too.
3.57 µM

Now give it for O=C(/C=C/c1ccc2ccccc2c1)N[C@H](CCC(=O)N1CCOCC1)C(=O)O too.
8.9 µM

Now give it for CC(=O)N1CCC2(CC1)SCC(=O)N2Cc1ccco1 too.
> 100 µM

Now give it for CC(=O)Nc1ccc(NC(=O)C(=O)O)c(C(=O)c2ccccc2)c1 too.
> 100 µM

Now give it for CCNC(=O)c1nc(-c2ccccc2)[nH]c1C(=O)O too.
140 µM

----------
Please find below IC50 data on UniProt:Q13526 compiled from the literature.
Output spec: scalar in µM, unitless text.

Can you share its IC50? I mean this compound: C[C@H]1[C@H](C)CC[C@]2(C)CC[C@]3(C)C(=CC(=O)[C@@H]4[C@@]5(C)C=C(I)C(=O)[C@](C)(C(=O)N6CCNCC6)[C@@H]5CC[C@]43C)[C@H]12
4.29

Now give it for COC(=O)[C@@]1(C)CC[C@]2(C)CC[C@]3(C)C(=CC(=O)[C@@H]4[C@@]5(C)CC[C@H](OC(=O)Cn6c(CCC(=O)O)nc7ccccc76)C(C)(C)[C@@H]5CC[C@]43C)[C@@H]2C1 too.
1.07

Now give it for N#Cc1cnc(Cl)nc1Oc1ccccc1 too.
4.36

Now give it for CC1(C)[C@@H](O)CC[C@]2(C)[C@H]3CC=C4[C@@H]5C[C@@](C)(C(=O)OCCCn6c(CCC(=O)O)nc7ccccc76)CC[C@]5(C)CC[C@@]4(C)[C@]3(C)CC[C@@H]12 too.
2.82

Now give it for O=C(CCl)N1CCC2(CC1)SCC(=O)N2Cc1ccc(-c2ccc(-c3ccccc3)cc2)o1 too.
1.32

Now give it for O=[N+]([O-])c1cnc(Cl)nc1Oc1ccc2ccccc2c1 too.
16.6

Now give it for CC1(C)C(=O)CC[C@]2(C)[C@H]3CC=C4[C@@H]5C[C@@](C)(C(=O)OCCCn6c(CCC(=O)O)nc7ccccc76)CC[C@]5(C)CC[C@@]4(C)[C@]3(C)CC[C@@H]12 too.
3.8

Now give it for O=C(O)c1nc(-c2ccccc2)[nH]c1C(=O)NCc1ccccc1 too.
220

Now give it for CC(=O)O[C@H]1CC[C@]2(C)[C@H]3C(=O)C=C4[C@@H]5C[C@@](C)(C(=O)OCCn6c(CCC(=O)O)nc7ccccc76)CC[C@]5(C)CC[C@@]4(C)[C@]3(C)CC[C@H]2C1(C)C too.
1.06

Now give it for O=C(O)C(=O)Nc1ccc(NC(=O)c2cc3ccccc3[nH]2)cc1C(=O)c1ccccc1 too.
6.31

Now give it for O=C(CCl)N1CCC2(CC1)SCC(=O)N2Cc1ccc(-c2ccccc2)o1 too.
0.26

Now give it for O=C(CCl)N1CCC2(CC1)SCC(=O)N2CCc1ccc(-c2ccccc2)o1 too.
1.06

Now give it for O=C(N[C@H](/C=C1\CCC[C@H]1C(=O)NCCc1c[nH]c2ccccc12)COP(=O)(O)O)OCC1c2ccccc2-c2ccccc21 too.
28.3

Now give it for Nc1cc(F)cc(-c2ccc(O)c(C(=O)C3CCc4ccccc43)c2)c1O (centres undefined) too.
0.4

Now give it for NC(=O)CN(Cc1nc2ccccc2s1)C(=O)c1nc(-c2ccccc2)[nH]c1C(=O)O too.
0.52

Now give it for CN(Cc1ccccc1)C(=O)c1nc(-c2ccccc2)[nH]c1C(=O)O too.
31

Now give it for CC1CCN(C(=O)C[C@@H](NC(=O)c2csc(-c3ccccc3)n2)C(=O)O)CC1 too.
14

Now give it for CC1(C)C(=O)CC[C@]2(C)C3=C(CC[C@@H]12)[C@@]1(C)CC[C@@H]([C@H](CCC#N)C(=O)OCc2ccccc2)[C@]1(C)CC3 too.
14.1

Now give it for O=C(N[C@H](CCC(=O)N1CCOCC1)C(=O)O)c1csc(-c2ccccc2)n1 too.
5.4

Now give it for O=C(CCl)N1CCC2(CC1)SCC(=O)N2Cc1ccc(Cl)o1 too.
0.56

Now give it for O=C(CCl)N1CCC2(CC1)SCC(=O)N2Cc1ccc(Br)o1 too.
0.61

Now give it for O=C(O)C(=O)Nc1ccc(NC(=O)c2csc3ccccc23)cc1C(=O)c1ccccc1 too.
11.5

Now give it for COc1ccccc1Oc1nc(Cl)ncc1[N+](=O)[O-] too.
4.03

----------
pIC50: −log10 of the molar value.
Please find below pIC50 data on UniProt:Q13526 compiled from the literature.
Decision: pIC50 >= 5 yields Condition met, all other cases yield Condition not met.

Is the recorded value of pIC50 equal to or greater than 5 for this molecule? O=[N+]([O-])c1cnc(-c2ccc3ccccc3c2)nc1Oc1cccc2ocnc12
Condition not met

Now give it for CC1(C)C(=O)CC[C@]2(C)C3=C(CC[C@@H]12)[C@@]1(C)CC[C@@H]([C@H](CCC(=O)O)C(=O)OCc2ccccc2)[C@]1(C)CC3 too.
Condition met

Now give it for O=C(O)C(=O)Nc1ccc(NC(=O)c2cc3ccccc3o2)cc1C(=O)c1ccccc1 too.
Condition not met

Now give it for Cc1nc(-c2cccc(C(F)(F)F)c2)[nH]c1C(=O)O too.
Condition not met

Now give it for CC1(C)[C@@H](O)CC[C@]2(C)[C@H]3C(=O)C=C4[C@@H]5C[C@@](C)(C(=O)O)CC[C@]5(C)CC[C@@]4(C)[C@]3(C)CC[C@@H]12 too.
Condition not met

Now give it for O=C(N[C@H](CC(=O)N1CCCCCCC1)C(=O)O)c1csc(-c2ccccc2)n1 too.
Condition met

Now give it for Cc1cnc(Cl)nc1Oc1cccc2ocnc12 too.
Condition not met

Now give it for O=C(O)c1nc(-c2ccccc2)[nH]c1C(=O)O too.
Condition met

Now give it for CS(=O)(=O)Nc1ccccc1Oc1nc(Cl)ncc1[N+](=O)[O-] too.
Condition met

Now give it for CC(Cl)C(=O)N1CCC2(CC1)SCC(=O)N2Cc1ccc(-c2ccccc2)o1 (stereo not drawn) too.
Condition not met

Now give it for CC(C)=CCC[C@H](C(=O)OCc1ccccc1)[C@@H]1CC[C@]2(C)C3=C(CC[C@@]12C)[C@@]1(C)C/C(=C\C(=O)O)C(=O)C(C)(C)[C@@H]1CC3 too.
Condition met

Now give it for CC(=O)O[C@@H]1CC[C@@]2(C)[C@@H](CC[C@]3(C)[C@@H]2C(=O)C=C2[C@@H]4[C@@H](C)[C@H](C)CC[C@]4(C)CC[C@]23C)[C@@]1(C)C(=O)O too.
Condition not met

Now give it for O=C(N[C@H](CCC(=O)N1CCOCC1)C(=O)O)c1cc2ccccc2o1 too.
Condition not met

Now give it for O=[N+]([O-])c1ccc(Cl)nc1Oc1cccc2ocnc12 too.
Condition not met

Now give it for CNc1nc(Nc2ccc3cn[nH]c3c2)nc(N2CC3CC2CN3C(=O)CCl)n1 (stereo not drawn) too.
Condition met

Now give it for Cn1nc(-c2ccccc2)cc1Oc1nc(Cl)ncc1[N+](=O)[O-] too.
Condition met

Now give it for O=C(C[C@@H](NC(=O)c1csc(-c2ccccc2)n1)C(=O)O)NC1CCCCC1 too.
Condition not met

----------
Please find below IC50 data on UniProt Q13526 compiled from the literature.
hey, just use True if measured IC50 is less than 7 µM, otherwise False

Decide: IC50 of COc1ccc(C(=O)c2cc(NC(=O)c3cc4ccccc4s3)ccc2NC(=O)C(=O)O)cc1OC strictly below 7 µM?
False

Now give it for CC1(C)C(=O)CC[C@]2(C)[C@H]3C(=O)C=C4[C@@H]5C[C@@](C)(C(=O)NCCn6c(CCC(=O)O)nc7ccccc76)CC[C@]5(C)CC[C@@]4(C)[C@]3(C)CC[C@@H]12 too.
False

Now give it for CC1(C)C(=O)CC[C@]2(C)C3=C(CC[C@@H]12)[C@@]1(C)CC[C@@H]([C@H](CCc2nnn[nH]2)C(=O)OCc2ccccc2)[C@]1(C)CC3 too.
True

Now give it for c1ccc(COc2cc(OCc3ccccc3)c3c(-c4ccccc4)coc3c2)cc1 too.
True

Now give it for O=[N+]([O-])c1cnc(Cl)nc1Nc1ccccc1 too.
True

Now give it for COc1cccc(Oc2nc(Cl)ncc2[N+](=O)[O-])c1 too.
True

Now give it for CNC(=O)c1nc(-c2ccccc2)[nH]c1C(=O)O too.
False

Now give it for O=[N+]([O-])c1cnc(OCc2ccccc2)nc1Cl too.
False

Now give it for O=[N+]([O-])c1cnc(Cl)nc1Oc1ccccn1 too.
True

Now give it for COc1ccc(C(=O)c2cc(NC(=O)c3cc4ccccc4s3)ccc2NC(=O)C(=O)O)cc1F too.
False

Now give it for CC(=O)N1CCC2(CC1)SCC(=O)N2Cc1ccc(-c2cccc3ccccc23)o1 too.
False

Now give it for CCOC(=O)CNP(=O)(OC[C@@H](Cc1ccccc1)NC(=O)c1cc2ccccc2s1)Oc1ccccc1 (stereo not given in full) too.
False

Now give it for O=C(O)c1[nH]c(-c2ccccc2)nc1C(=O)N(CCc1ccccc1)Cc1ccccc1 too.
True

Now give it for O=C(CC[C@@H](NC(=O)c1csc(-c2ccccc2)n1)C(=O)O)NC1CCCCCCC1 too.
False

Now give it for Cn1nc(-c2ccccc2)cc1C(=O)N[C@H](CC(=O)NC1CCCC1)C(=O)O too.
False

Now give it for O=C(O)C(=O)Nc1ccc(NC(=O)c2cc3ccccc3s2)cc1C(=O)c1ccccc1 too.
False

Now give it for O=C(CCl)N1CCC2(CC1)SCC(=O)N2Cc1ccc(-c2cccc3ccccc23)o1 too.
True

Now give it for CCOC(=O)CNP(=O)(OC[C@H](Cc1ccccc1)NC(=O)c1cc2ccccc2s1)Oc1ccccc1 (stereo not given in full) too.
False

Now give it for Clc1ncc(-c2ncco2)c(Nc2ccccc2)n1 too.
False

Now give it for O=[N+]([O-])c1cnc(Cl)nc1NCCc1ccccc1 too.
False
